The reported numbers originate from ChEMBL document CHEMBL1156597.

- Test system: SK-MEL-28
- Protocol summary: Cytotoxicity against human SK-MEL-28 cells after 48 hrs by SRB assay
- Format: functional, cell-based
- Conditions: Homo sapiens, SK-MEL-28, 48 h
Examples of compounds with documented GI50 follow.
Measure: GI50 (nM)

Chem smiles: C/C=C1\NC(=O)[C@H](Cc2ccccc2)NC(=O)[C@@H](CCC2CCCCC2)NC(=O)[C@@H](CCC2CCCCC2)NC(=O)[C@H](NC(=O)[C@@H](CCC2CCCCC2)NC(=O)[C@H](CCCN)NC(=O)[C@H]2CCCN2C(=O)[C@H](NC(=O)[C@@H](NC(=O)[C@@H](NC(=O)[C@H](NC(=O)CCCC(C)C)C(C)C)[C@@H](C)O)C(C)C)C(C)C)[C@H](C)OC(=O)[C@H](C(C)C)NC1=O
Unit of measure: nM
Number: 159
//
Chem smiles: C/C=C1\NC(=O)[C@H](Cc2ccc(Cl)c(Cl)c2)NC(=O)[C@@H](C(C)C)NC(=O)[C@@H]([C@H](C)CC)NC(=O)[C@H](NC(=O)[C@H](NC(=O)[C@H](CCCN)NC(=O)[C@H]2CCCN2C(=O)[C@H](NC(=O)[C@@H](NC(=O)[C@@H](NC(=O)[C@H](NC(=O)CC[C@@H](C)CC)C(C)C)[C@@H](C)O)C(C)C)C(C)C)[C@H](C)CC)[C@H](C)OC(=O)[C@H](C(C)C)NC1=O
Unit of measure: nM
Number: 852
//
Chem smiles: C/C=C1\NC(=O)[C@H](Cc2ccccc2)NC(=O)[C@@H](C(C)C)NC(=O)[C@@H]([C@H](C)CC)NC(=O)[C@H](NC(=O)[C@H](NC(=O)[C@H](CCCNC(=O)CCOCCOCCN)NC(=O)[C@H]2CCCN2C(=O)[C@H](NC(=O)[C@@H](NC(=O)[C@@H](NC(=O)[C@H](NC(=O)CCCC(C)C)C(C)C)[C@@H](C)O)C(C)C)C(C)C)[C@H](C)CC)[C@H](C)OC(=O)[C@H](C(C)C)NC1=O
Unit of measure: nM
Number: 956
//
Chem smiles: C/C=C1\NC(=O)[C@H](Cc2ccccc2)NC(=O)[C@@H](C(C)C)NC(=O)[C@@H]([C@H](C)CC)NC(=O)[C@H](NC(=O)[C@H](NC(=O)[C@H](CCCN)NC(=O)[C@H]2CCCN2C(=O)[C@H](NC(=O)[C@@H](NC(=O)[C@@H](NC(=O)[C@H](NC(=O)CCCCCCC)C(C)C)[C@@H](C)O)C(C)C)C(C)C)[C@H](C)CC)[C@H](C)OC(=O)[C@H](C(C)C)NC1=O
Unit of measure: nM
Number: 949
//
Chem smiles: C/C=C1\NC(=O)[C@H](Cc2ccccc2)NC(=O)[C@@H](C(C)C)NC(=O)[C@@H]([C@H](C)CC)NC(=O)[C@H](NC(=O)[C@H](NC(=O)[C@H](CCCNC(=O)CCCC[C@@H]2SC[C@@H]3NC(=O)N[C@@H]32)NC(=O)[C@H]2CCCN2C(=O)[C@H](NC(=O)[C@@H](NC(=O)[C@@H](NC(=O)[C@H](NC(=O)CCCC(C)C)C(C)C)[C@@H](C)O)C(C)C)C(C)C)[C@H](C)CC)[C@H](C)OC(=O)[C@H](C(C)C)NC1=O
Unit of measure: nM
Number: 974
//
Chem smiles: C/C=C1\NC(=O)[C@H](Cc2ccc(Cl)cc2)NC(=O)[C@@H](C(C)C)NC(=O)[C@@H]([C@H](C)CC)NC(=O)[C@H](NC(=O)[C@H](NC(=O)[C@H](CCCN)NC(=O)[C@H]2CCCN2C(=O)[C@H](NC(=O)[C@@H](NC(=O)[C@@H](NC(=O)[C@H](NC(=O)CCCC(C)C)C(C)C)[C@@H](C)O)C(C)C)C(C)C)[C@H](C)CC)[C@H](C)OC(=O)[C@H](C(C)C)NC1=O
Unit of measure: nM
Number: 393
//
Chem smiles: C/C=C1\NC(=O)[C@H](Cc2ccccc2)NC(=O)[C@@H](C(C)C)NC(=O)[C@@H]([C@H](C)CC)NC(=O)[C@H](NC(=O)[C@H](NC(=O)[C@H](CCCN)NC(=O)[C@H]2CCCN2C(=O)[C@H](NC(=O)[C@@H](NC(=O)CNC(=O)[C@H](NC(=O)CCCC(C)C)C(C)C)C(C)C)C(C)C)[C@H](C)CC)[C@H](C)OC(=O)[C@H](C(C)C)NC1=O
Unit of measure: nM
Number: 283
//
Chem smiles: C/C=C1\NC(=O)[C@H](Cc2ccccc2)NC(=O)[C@@H](C(C)C)NC(=O)[C@@H]([C@H](C)CC)NC(=O)[C@H](NC(=O)[C@H](NC(=O)[C@H](CCCN)NC(=O)[C@H]2CCCN2C(=O)[C@H](NC(=O)[C@@H](NC(=O)[C@H](Cc2ccccc2)NC(=O)[C@H](NC(=O)CCCC(C)C)C(C)C)C(C)C)C(C)C)[C@H](C)CC)[C@H](C)OC(=O)[C@H](C(C)C)NC1=O
Unit of measure: nM
Number: 146
//
Chem smiles: C/C=C1\NC(=O)[C@H](Cc2ccc([N+](=O)[O-])cc2)NC(=O)[C@@H](C(C)C)NC(=O)[C@@H]([C@H](C)CC)NC(=O)[C@H](NC(=O)[C@H](NC(=O)[C@H](CCCN)NC(=O)[C@H]2CCCN2C(=O)[C@H](NC(=O)[C@@H](NC(=O)[C@@H](NC(=O)[C@H](NC(=O)CC[C@@H](C)CC)C(C)C)[C@@H](C)O)C(C)C)C(C)C)[C@H](C)CC)[C@H](C)OC(=O)[C@H](C(C)C)NC1=O
Unit of measure: nM
Number: 235
//
Chem smiles: C/C=C1\NC(=O)[C@H](Cc2ccc(F)c(F)c2)NC(=O)[C@@H](C(C)C)NC(=O)[C@@H]([C@H](C)CC)NC(=O)[C@H](NC(=O)[C@H](NC(=O)[C@H](CCCN)NC(=O)[C@H]2CCCN2C(=O)[C@H](NC(=O)[C@@H](NC(=O)[C@@H](NC(=O)[C@H](NC(=O)CCCC(C)C)C(C)C)[C@@H](C)O)C(C)C)C(C)C)[C@H](C)CC)[C@H](C)OC(=O)[C@H](C(C)C)NC1=O
Unit of measure: nM
Number: 203
